Data origin, for the record: BindingDB's records for doi:10.3109/14756366.2011.651463

- EXPERIMENTAL SYSTEM: Urokinase-type plasminogen activator (Homo sapiens)
RECORDED ENDPOINT: Ki (µM)
Reply numerically in µM, unit not repeated.

N=C(N)NCCC[C@@H](NC(=O)[C@@H](CC1CCCCC1)NC(=O)[C@H](N)CO)C(=O)O; 247

Could you now consider this next compound?
compound N=C(N)NCCC[C@@H](NC(=O)C1(NC(=O)[C@H](N)CO)CCCCC1)C(=O)O , Ki observed: 395

----------
The next entries give measured Ki for UniProtKB P07477.
Sequence (P07477 whole entry): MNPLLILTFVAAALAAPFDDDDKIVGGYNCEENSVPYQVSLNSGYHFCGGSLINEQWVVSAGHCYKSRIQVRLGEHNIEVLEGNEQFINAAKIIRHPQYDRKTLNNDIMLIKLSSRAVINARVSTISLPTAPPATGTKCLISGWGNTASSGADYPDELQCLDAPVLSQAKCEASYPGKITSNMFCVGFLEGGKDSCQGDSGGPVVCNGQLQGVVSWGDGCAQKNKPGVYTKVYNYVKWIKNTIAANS
Report only the number, with the unit µM understood.

Check out these entries, answers already filled in.
C[C@@](Cc1ccccc1)(NC(=O)[C@H](N)CO)C(=O)N[C@@H](CCCNC(=N)N)C(=O)O [H-D-Ser-αMePhe-Arg-OH (7)]; 28.2
N=C(N)NCCC[C@H](NC(=O)C1(NC(=O)[C@H](N)CO)CCCCC1)C(=O)O [H-D-Ser-1ACH-Arg-OH (8)]; 26.2
N=C(N)NCCC[C@H](NC(=O)[C@H](CC1CCCCC1)NC(=O)[C@H](N)CO)C(=O)O [H-D-Ser-Cha-Arg-OH (5)]; 30.9
N=C(N)NCCC[C@H](NC(=O)[C@H](Cc1ccccc1)NC(=O)[C@H](N)CO)C(=O)O [H-D-Ser-Phe-Arg-OH (2)]; 22.9

// recorded Ki for N=C(N)NCCC[C@H](NC(=O)[C@H](CCc1ccccc1)NC(=O)[C@H](N)CO)C(=O)O [H-D-Ser-homoPhe-Arg-OH (3)] : 23.9
